This listing pairs compounds with measured GI50.
system: NCI/ADR-RES; test: NCI tumour cell line growth inhibition, 48 h
Activity calls are given as the source filed them. Cut-off read from the data, not from the text of the source: active = GI50 up to about 1.1 µM and inactive = higher.

compound	assayed-system	recorded-endpoint	val
O=c1[nH]c(=O)n(COCCO)cc1-c1ccccc1	NCI/ADR-RES	GI50	> 100 µM (inactive)

Prompt: Returns the measured GI50 for the input compound. Input: O=C(CCc1cccc(O)c1)NCCc1ccc(O)cc1
Response: > 100 µM (inactive)

Prompt: What do you have for COc1ccc(-c2c(C#N)c(-c3ccc(C)cc3)n(NS(=O)(=O)c3ccccc3)c(=O)c2C#N)cc1 ?
Response: 41.5 µM (inactive)

Prompt: What do you have for CC1(C)[C@@H]2C[C@H]1C(Cc1ccc(C[C@H]3c4cc(-c5ccccn5)ncc4[C@H]4C[C@@H]3C4(C)C)cc1)c1cc(-c3ccccn3)ncc12 (some centres not stated) ?
Response: 2.71 µM (inactive)

###

tested on: COLO 205; test: NCI tumour cell line growth inhibition, 48 h
Active and inactive are the calls of the source. No stated cut-off is given here; in the data, active = GI50 up to about 1.1 µM and inactive = higher.
This listing pairs molecules with measured GI50.

Below: 8 molecules and their reported GI50.
>>> df
                                   molecule  assayed_system                  val
0  O=C(CSCC(=O)N/N=C/c1cccc(O)c1)N/N=C/c1cccc(O)c1        COLO 205  > 100 µM (inactive)
1  CCn1c(-c2c(Cl)cc(O)cc2Cl)cc2c(Cl)cc(O)cc21        COLO 205   15.2 µM (inactive)
2  C/C(=C1/CCC/C(=C(/C)c2ccccc2)C1=O)c1ccccc1        COLO 205   65.6 µM (inactive)
3  Clc1ccc(Cc2nc3cc(CCN4CCN(c5ccccc5)CC4)ccc3[nH]2)cc1        COLO 205   4.06 µM (inactive)
4  Cc1cc2c(cc1Cl)SC(NNC(=O)c1ccncc1)=NS2(=O)=O        COLO 205   > 10 µM (inactive)
5  COC(=O)/C(=N/NC(N)=O)C(C(=O)OC)C(=O)C(=O)Nc1ccc(Cl)cc1 (stereo not drawn)        COLO 205  > 100 µM (inactive)
6  O=C(O)C1C2c3ccccc3C(c3ccccc32)C1C(=O)NCC1CC1 (stereo not drawn)        COLO 205   54.5 µM (inactive)
7     c1csc(-c2ccc(-c3ccc(-c4cccs4)s3)s2)c1        COLO 205  > 100 µM (inactive)

Prompt: Returns the measured GI50 for the input molecule. Input: CC12CC3OC(=O)C1COC14OC5(C2C1=O)C(O)(CCC1C4CC2OC24CC=CC(=O)C14C)C(=O)OC35C (stereo not drawn)
Response: 10.3 µM (inactive)

###

test system: SW-620; assay: NCI tumour cell line growth inhibition, 48 h
Active and inactive are the calls of the source. No stated cut-off is given here; in the data, active = GI50 up to about 1.1 µM and inactive = higher.
This listing pairs compounds with measured GI50.

Below: 3 compounds and their reported GI50.
                                   compound  recorded_endpoint                  val
0       CC(C)N1CCC2(CC1)NNc1ncccc1-n1cccc12               GI50  > 100 µM (inactive)
1               CN(C)/C=N\c1ccn(CCO)c(=O)n1               GI50  > 100 µM (inactive)
2  Cc1ccc([N+](=O)[O-])cc1S(=O)(=O)Nc1ccc(C2=NNC(c3ccccc3O)C2)cc1 (centres undefined)               GI50     31 µM (inactive)

Shifting focus to the compound that follows.
Prompt: Returns the measured GI50 for the input compound. Input: Cc1ccc(NP(=O)(Oc2ccccc2)N(CCCl)CCCl)cc1 (centres undefined)
Response: > 100 µM (inactive)

###

test system: PC-3; assay: NCI tumour cell line growth inhibition, 48 h
Active and inactive are the calls of the source. Rule as the data show it: active = GI50 up to about 1.1 µM and inactive = higher.
This listing pairs compounds with measured GI50.

Prompt: For the record CCCCCCCCCCCCCOCCOCCOCCCCC(O)CCCCCCCCCC1=C[C@H](C)OC1=O (stereo partly specified) , what value of GI50 is listed for PC-3?
Response: 13.8 µM (inactive)

Prompt: What do you have for COc1cc(C(C[N+](=O)[O-])SC(C)=O)ccc1OCc1ccccc1 (stereo unspecified) ?
Response: 4.47 µM (inactive)

Prompt: What do you have for CN(C)CCNC(=O)c1cccc2nc3c4ccccc4c4ccccc4c3nc12 ?
Response: 1.65 µM (inactive)

Prompt: What do you have for O=C1c2ccccc2-c2nc(-c3cccc([N+](=O)[O-])c3)nnc21 ?
Response: 40.2 µM (inactive)

Prompt: What do you have for C/C=C/C(CC(O)(C(F)(F)F)C(F)(F)F)=N/NC(N)=S ?
Response: > 10 µM (inactive)

Prompt: What do you have for C=C1C(=O)OC2/C=C(\C)CC/C=C(\C)CC(OC(=O)/C(=C/CO)CO)[C@@H]12 (stereo partly specified) ?
Response: 16.9 µM (inactive)

Prompt: What do you have for NC(=O)NC1NC(=O)NC1=O (stereo unspecified) ?
Response: > 100 µM (inactive)

Prompt: What do you have for COc1cccc2c1CCc1c(-c3ccc(F)cc3)cc(-c3ccc4ccccc4n3)nc1-2 ?
Response: > 100 µM (inactive)

Prompt: What do you have for O=C(NC1(C(=O)O)CCCC1)c1ccccc1 ?
Response: > 100 µM (inactive)

Prompt: What do you have for c1ccc2c(c1)ccn2CCc1c[nH]c2ccccc12 ?
Response: > 10 µM (inactive)

Prompt: What do you have for COC(=O)[C@@H]1C=CCN1S(=O)(=O)c1ccc(C)cc1 ?
Response: > 100 µM (inactive)

Prompt: What do you have for COc1ccc2[nH]c3c(c2c1)CC(=S)N1CCCC(CC3=O)C1 (stereo unspecified) ?
Response: 37.2 µM (inactive)

Prompt: What do you have for C=C1C(=O)OC2C3C(=C)[C@@H](OC(C)=O)CC3C(C)=CC(OC(=O)C(C)(O)C(C)OC(C)=O)[C@@H]12 (stereo partly specified) ?
Response: 16.3 µM (inactive)

Prompt: What do you have for CNc1ccc(-c2nc3cc(C)ccc3o2)cc1 ?
Response: > 100 µM (inactive)

Prompt: What do you have for O=C(CSCC(=O)N/N=C/c1cccc(O)c1)N/N=C/c1cccc(O)c1 ?
Response: > 100 µM (inactive)

Prompt: What do you have for C/C=C1/CN2CCc3c([nH]c4ccccc34)[C@@H]2C[C@@H]1Cc1nccc2c1[nH]c1cc(O)ccc12 ?
Response: 2.25 µM (inactive)

###

tested on: K562; test: NCI tumour cell line growth inhibition, 48 h
The source made the active and inactive calls. Cut-off read from the data, not from the text of the source: active = GI50 up to about 1.1 µM and inactive = higher.
recorded-endpoint: GI50

Below: 2 compounds and their reported GI50.
>>> print(df.to_string())
                                   compound                  val
0  O=C1C(CN2CCCC2)CCC1CN1CCCC1 (stereo not drawn)    2.9 µM (inactive)
1   CC12CCC(CC1(Cl)Cl)C2 (stereo not drawn)  > 100 µM (inactive)

Shifting focus to the compound that follows.
Prompt: Returns the measured GI50 for the input compound. Input: O=C(c1cccnc1)N1N=C(c2ccccc2)CC1(O)c1cc(F)c(Cl)cc1Cl (stereo not drawn)
Response: 21.4 µM (inactive)

###

system: RPMI-8226; test: NCI tumour cell line growth inhibition, 48 h
Calls of active or inactive are those of the source. Cut-off read from the data, not from the text of the source: active = GI50 up to about 1.1 µM and inactive = higher.
Select the correct class. Options are true (1) for active, false (0) for inactive and nothing else.

                                   compound  assigned_class
0  Cc1ccc(-c2cc(N)n(-c3nc4c(c(=O)n(C)c(=O)n4C)n3C)n2)cc1       false (0)

Prompt: Name the outcome recorded for CNc1ccc(-c2nc3cc(C)ccc3o2)cc1 in the assay.
Response: false (0)

Prompt: What do you have for Oc1cc(/C=C/c2ccccc2)nc2cc3c(cc12)OCO3 ?
Response: true (1)

Prompt: What do you have for Cn1c(=O)c2[nH]c(Nc3cccc(Cl)c3)nc2n(C)c1=O ?
Response: false (0)

Prompt: What do you have for O=c1cc(-c2ccccc2)oc2cc(OCCCCCCCCCCOc3ccc4c(=O)cc(-c5ccccc5)oc4c3)ccc12 ?
Response: false (0)

Prompt: What do you have for C/C=C/C(CC(O)(C(F)(F)F)C(F)(F)F)=N/NC(N)=S ?
Response: false (0)

###

system: UO-31; experiment: NCI tumour cell line growth inhibition, 48 h
Active and inactive are the calls of the source. Cut-off read from the data, not from the text of the source: active = GI50 up to about 1.1 µM and inactive = higher.
Select the correct class. Options are TRUE = active, FALSE = inactive and nothing else.

Example results:
molecule	assigned-class
COc1cc(CNc2nc3cc(C(F)(F)F)ccc3nc2-c2ccccc2)cc(OC)c1OC	FALSE
CCO/C([O-])=C(/C=O)[n+]1c(C)n(C)c2ccccc21	FALSE
O=c1cc(-c2ccccc2)[nH]c2cc(F)cc(F)c12	FALSE

Prompt: Name the outcome recorded for COc1cc(/C=C/c2csnn2)cc(OC)c1OC in the assay.
Response: FALSE

Prompt: What do you have for COc1ccc(CC(=O)N2CCC3(C)CC(=O)CC=C23)cc1OC (centres undefined) ?
Response: FALSE

Prompt: What do you have for COC1OC2COC1(OCc1ccccc1)C1OC(C)(C)OC21 (centres undefined) ?
Response: FALSE

Prompt: What do you have for O=c1c2c(nc3[nH]ccn13)CCCC2 ?
Response: FALSE

Prompt: What do you have for O=C(NC(=O)c1cn(CCN2CCN(C(=O)NCCCCCCNC(=O)N3CCN(CCn4cc(C(=O)NC(=O)OCc5ccccc5)c(=O)[nH]c4=O)CC3)CC2)c(=O)[nH]c1=O)OCc1ccccc1 ?
Response: FALSE
